assay: Lipophilicity, log D of the compound in Octanol/buffer by shake-flask method
readout: logD
Please give only the number in your answer, with no unit.

For this compound ( `O=C(c1cnc(NC2(c3cncnc3)CC2)nc1)N1CCCCC1` ), measured logD is 0.7

For this compound ( `C[C@H](Nc1ncc(C(=O)N2CCC3(CCOCC3)C2)cn1)c1cncnc1` ), measured logD is 2

For this compound ( `O=C(c1cnc(NC2(c3cncnc3)CCC2)nc1)N1CCC2(CCOCC2)C1` ), measured logD is 2

For this compound ( `C[C@@H](Nc1ncc(C(=O)N2CCC3(CCOCC3)C2)cn1)c1cncnc1` ), measured logD is 0.2

For this compound ( `C[C@H](Nc1ncc(C(=O)N2CC3(CCOCC3)C2)cn1)c1cnccn1` ), measured logD is 0.2

For this compound ( `N#Cc1cccc(C(=O)c2cnc(NC3(c4ccccc4)CC3)nc2)c1` ), measured logD is 3

====

I'd appreciate it if you could supply Intrinsic clearance values for the items below.
test: Intrinsic clearance in human liver microsomes; assay type: ADME, Microsome

For this compound ( `O=C(c1cnc(NC2(c3cncnc3)CC2)nc1)N1CCC2(CCOCC2)C1` ), measured Intrinsic clearance is < 10 µL/min/mg

For this compound ( `CC(C)(Nc1ncc(C(=O)N2CC3(CCOCC3)C2)cn1)c1cnccn1` ), measured Intrinsic clearance is < 13 µL/min/mg

For this compound ( `C[C@H](Nc1ncc(C(=O)N2CCC3(CCOCC3)C2)cn1)c1cnccn1` ), measured Intrinsic clearance is < 8 µL/min/mg

====

test: Apparent permeability across apical to basolateral side in RRCK cells; details: dog, MDCK
readout: Papp A→B (nm/s)
Note: unit nm/s is implicit; provide only the numeric part.

For this compound ( `N#Cc1cccc(C(=O)c2cnc(NCc3cccnc3)nc2)c1` ), measured Papp A→B is 280

For this compound ( N#CC1CCCN(C(=O)c2cnc(NC3(c4cncnc4)CC3)nc2)C1 (racemic) ), measured Papp A→B is 15

For this compound ( `CC(C)(Nc1ncc(C(=O)N2CCC3(CCOCC3)C2)cn1)c1cnccn1` ), measured Papp A→B is 170

For this compound ( `N#Cc1cccc(C(=O)c2cnc(NCc3ccccc3)nc2)c1` ), measured Papp A→B is 190

For this compound ( `O=C(c1cnc(NC2(c3cnccn3)COC2)nc1)N1CCC2(CCOCC2)C1` ), measured Papp A→B is 20

For this compound ( `N#Cc1cccc(C(=O)c2cnc(NCc3cncnc3)nc2)c1` ), measured Papp A→B is 230

For this compound ( `O=C(c1cnc(NC2(c3cnccn3)CCC2)nc1)N1CC2(CCOCC2)C1` ), measured Papp A→B is 170

For this compound ( `C[C@@H](Nc1ncc(C(=O)N2CCC3(CCOCC3)C2)cn1)c1cnccn1` ), measured Papp A→B is 110

For this compound ( `O=C(c1cnc(NC2(c3cncnc3)CCC2)nc1)N1CCC2(CCOCC2)C1` ), measured Papp A→B is 80

For this compound ( `O=C(c1cnc(NCc2cncnc2)nc1)N1CCC2(CCOCC2)C1` ), measured Papp A→B is 30

For this compound ( `CS(=O)(=O)[C@@H]1CCCN(C(=O)c2cnc(NC3(c4cncnc4)CC3)nc2)C1` ), measured Papp A→B is 6

For this compound ( `CS(=O)(=O)[C@H]1CCCN(C(=O)c2cnc(NC3(c4cncnc4)CC3)nc2)C1` ), measured Papp A→B is 6

For this compound ( `C[C@H](Nc1ncc(C(=O)N2CC3(CCOCC3)C2)cn1)c1cnccn1` ), measured Papp A→B is 160

For this compound ( `CC(C)(Nc1ncc(C(=O)N2CC3(CCOCC3)C2)cn1)c1cnccn1` ), measured Papp A→B is 140

For this compound ( `O=C(c1ccccc1)c1cnc(NCc2cccnc2)nc1` ), measured Papp A→B is 280

For this compound ( `O=C(c1cnc(NC2(c3cncnc3)CC2)nc1)N1CCCCC1` ), measured Papp A→B is 95

For this compound ( `C[C@H](Nc1ncc(C(=O)N2CCC3(CCOCC3)C2)cn1)c1cncnc1` ), measured Papp A→B is 70

For this compound ( `O=C(c1cnc(NCc2cnccn2)nc1)N1CC2(CCOCC2)C1` ), measured Papp A→B is 90

For this compound ( `O=C(c1cnc(NC2(c3cncnc3)CC2)nc1)N1CCC2(CCOCC2)C1` ), measured Papp A→B is 20

For this compound ( `O=C(c1cnc(NCc2cccnc2)nc1)N1CCC2(CCOCC2)C1` ), measured Papp A→B is 60

For this compound ( `N#Cc1cccc(C(=O)c2cnc(NC3(c4ccccc4)CC3)nc2)c1` ), measured Papp A→B is 230

For this compound ( `O=C(c1cnc(NCc2cccnc2)nc1)c1cccs1` ), measured Papp A→B is 240

For this compound ( `C[C@@H](Nc1ncc(C(=O)N2CCC3(CCOCC3)C2)cn1)c1cncnc1` ), measured Papp A→B is 60

For this compound ( `O=C(c1cnc(NC2(c3cnccn3)CCC2)nc1)N1CCC2(CCOCC2)C1` ), measured Papp A→B is 120

For this compound ( `N#Cc1cccc(C(=O)c2cnc(NC3(c4cncnc4)CC3)nc2)c1` ), measured Papp A→B is 270

For this compound ( `N#C[C@@H]1CCCN(C(=O)c2cnc(NC3(c4cncnc4)CC3)nc2)C1` ), measured Papp A→B is 17

For this compound ( CS(=O)(=O)C1CCCN(C(=O)c2cnc(NC3(c4cncnc4)CC3)nc2)C1 (racemic) ), measured Papp A→B is 9

====

assay: Intrinsic clearance in human liver microsomes; type: ADME, Microsome
I'd appreciate it if you could supply Intrinsic clearance values for the items below.

For this compound ( N#CC1CCCN(C(=O)c2cnc(NC3(c4cncnc4)CC3)nc2)C1 (racemic) ), measured Intrinsic clearance is < 11 µL/min/mg

For this compound ( `O=C(c1cnc(NC2(c3cncnc3)COC2)nc1)N1CCC2(CCOCC2)C1` ), measured Intrinsic clearance is < 8 µL/min/mg

For this compound ( `N#C[C@@H]1CCCN(C(=O)c2cnc(NC3(c4cncnc4)CC3)nc2)C1` ), measured Intrinsic clearance is < 8 µL/min/mg

For this compound ( `O=C(c1cnc(NCc2cccnc2)nc1)N1CCC2(CCOCC2)C1` ), measured Intrinsic clearance is < 8 µL/min/mg

For this compound ( CS(=O)(=O)C1CCCN(C(=O)c2cnc(NC3(c4cncnc4)CC3)nc2)C1 (racemic) ), measured Intrinsic clearance is < 8 µL/min/mg

For this compound ( `C[C@@H](Nc1ncc(C(=O)N2CCC3(CCOCC3)C2)cn1)c1cnccn1` ), measured Intrinsic clearance is < 8 µL/min/mg
